# tested_target: His-CREBBP (1081-1197) bromodomain (Homo sapiens (Human), UniProt Q92793)
# Sequence (Q92793 1081-1197): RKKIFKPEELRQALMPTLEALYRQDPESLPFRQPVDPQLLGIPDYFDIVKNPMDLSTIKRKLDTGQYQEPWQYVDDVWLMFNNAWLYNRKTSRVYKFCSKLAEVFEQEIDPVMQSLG
# assay_info: AlphaScreen in-vitro binding assay for CREBBP
# setup_conditions: biochemical
observation_type: IC50 (µM)

P = Cc1nn(C2CC2)c2c1C(c1ccc(Cl)cc1)N(c1cn(C)c(=O)c3[nH]ccc13)C2=O (stereo not shown)
Q = Cc1nn(C2CC2)c2c1[C@@H](c1ccc(F)cc1F)N(c1cc(C)c3nnc(C)n3c1)C2=O
Just tell me: smaller IC50 value, P or Q ? Selection: enter the item's label.
P
(P: 4.4 µM, Q: 19 µM)

====

# tested_target: His-Brd2(60-472) (Homo sapiens (Human), UniProt P25440)
# Sequence (P25440 60-472): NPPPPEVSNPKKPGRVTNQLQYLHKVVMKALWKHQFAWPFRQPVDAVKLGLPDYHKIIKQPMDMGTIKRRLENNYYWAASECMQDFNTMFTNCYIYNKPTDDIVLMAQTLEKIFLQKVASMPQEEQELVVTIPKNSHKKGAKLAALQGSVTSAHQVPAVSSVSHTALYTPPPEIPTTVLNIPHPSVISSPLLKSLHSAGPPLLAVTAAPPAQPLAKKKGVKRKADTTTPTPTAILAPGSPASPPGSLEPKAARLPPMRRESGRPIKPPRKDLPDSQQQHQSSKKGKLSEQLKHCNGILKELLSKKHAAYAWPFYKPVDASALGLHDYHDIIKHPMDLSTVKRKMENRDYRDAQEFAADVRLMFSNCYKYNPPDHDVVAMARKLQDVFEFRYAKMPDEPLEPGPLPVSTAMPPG
pIC50: −log10 of the molar value.
observation_type: pIC50

The cases that follow already have their pIC50 on record.
>  <compound>
Cc1nn(C(C)C)c2c1C(c1ccc(Cl)cc1F)N(c1cc(C)c(=O)n(C)c1)C2=O (centres unmarked)

>  <observed_value>
7.05

$$$$
>  <compound>
Cc1n[nH]c2c1C(c1ccc(F)cc1F)N(c1cc(C)c3nnc(C)n3c1)C2=O (centres unmarked)

>  <observed_value>
6.66

$$$$
>  <compound>
CCc1c2c(nn1CCO)C(=O)N(c1cc(C)c3onc(C)c3c1)C2c1ccc(Cl)cc1 (centres unmarked)

>  <observed_value>
7.23

$$$$
>  <compound>
CNC(=O)n1nc2c(c1C)C(c1ccc(Cl)cc1)N(c1cc(C)c3nnc(C)n3c1)C2=O (centres unmarked)

>  <observed_value>
6.72

$$$$

A = CCc1nn(C(=O)N(C)C)c2c1C(c1ccc(Cl)cc1)N(c1cc(C)c(=O)n(C)c1)C2=O (centres unmarked)
B = COc1ncc(-n2nc(C)c3c2C(=O)N(c2cc(C)c(=O)n(C)c2)C3c2ccc(Cl)cc2)c(OC)n1 (racemic)
C = Cc1nn(C)c2c1C(c1ccc(Cl)cc1)N(c1cc(C)c(=O)n(C)c1)C2=O (centres unmarked)
Sequence the entries by pIC50, beginning with the highest number. # list labels per requested ordering
B, A, C
(B: 7.20, A: 6.85, C: 6.57)

====

IC50 values recorded for His-Brd2(60-472) (Homo sapiens (Human), UniProt P25440)
observation_type: IC50 (µM)

a = Cc1nn(C2CN(C)C2)c2c1C(c1ccc(Cl)cc1)N(c1cc(C)c3nnc(C)n3c1)C2=O (stereo not shown)
b = CCn1nc2c(c1C)C(c1ccc(F)cc1F)N(c1cc(C)c3nnc(C)n3c1)C2=O (stereo not shown)
Please state the entry with greater IC50 among a and b . Respond using the label that marks the chosen record.
b

====

# tested_target: His-CREBBP (1081-1197) bromodomain (Homo sapiens (Human), UniProt Q92793)
# assay_info: AlphaScreen in-vitro binding assay for CREBBP
# setup_conditions: biochemical
# Method: AlphaScreen In-Vitro Binding Assay for CREBBP In order to assess bromodomain selectivity, we set up a binding assay using the bromodomain encoded by the CREBBP gene. […] Reactions were incubated at 30° C. for 35 minutes. […] After 60 minutes incubation at room temperature, plates were measured in a Perkin Elmer EnVision multilabel reader. IC50 values were determined from percent inhibition values at different compound concentrations by non-linear regression analysis. […]
pIC50: −log10 of the molar value.
observation_type: pIC50

Below, each entry is followed by its recorded pIC50 result.
>  <molecule>
COc1ccccc1-n1nc(C)c2c1C(=O)N(c1cc(C)c3nnc(C)n3c1)C2c1ccc(Cl)cc1F (stereo not shown)

>  <observation_type>
pIC50

>  <observed_value>
4.48

$$$$
>  <molecule>
CCOC(=O)N1CC(n2nc(C)c3c2C(=O)N(c2cc(C)c(=O)n(C)c2)C3c2ccc(Cl)cc2)C1 (stereo not shown)

>  <observation_type>
pIC50

>  <observed_value>
4.96

$$$$

a = CCc1nn(CCO)c2c1C(c1ccc(Cl)cc1)N(c1cc(C)c3onc(C)c3c1)C2=O (stereo not shown)
b = Cc1nn(C2CCC2)c2c1C(c1ccc(Cl)cc1)N(c1cc(C)c(=O)n(C)c1)C2=O (stereo not shown)
Between the entries labeled a and b , whose measured pIC50 is lower? Answer by stating the label of the chosen item.
a

====

# tested_target: His-Brd2(60-472) (Homo sapiens (Human), UniProt P25440)
pIC50: −log10 of the molar value.
observation_type: pIC50

>  <compound>
Cc1cc(N2C(=O)c3nn(C(C)C)c(C)c3C2c2ccc(Cl)cc2)cn(C)c1=O (stereo not drawn) [Example 64]

>  <observed_value>
6.74

$$$$
>  <compound>
Cc1cc(N2C(=O)c3c(cnn3C(C)C)C2c2ccc(Cl)cc2)cn(C)c1=O (stereo not drawn) [Example 36]

>  <observed_value>
7.24

$$$$

A = CCOC(=O)N1CC(n2nc(C)c3c2C(=O)N(c2cc(C)c(=O)n(C)c2)C3c2ccc(Cl)cc2)C1 (stereo not drawn) [Example 155]
B = CC(=O)N1CC(n2nc(C)c3c2C(=O)N(c2cc(C)c(=O)n(C)c2)C3c2ccc(Cl)cc2)C1 (stereo not drawn) [Example 153]
C = CNC(=O)n1nc(C)c2c1C(=O)N(c1cc(C)c(=O)n(C)c1)C2c1ccc(Cl)cc1 (stereo not drawn) [Example 143]
List these items ordered by pIC50, big to small. Give your ranking as a list of the labels in the requested order.
A, B, C
(A: 7.10, B: 6.80, C: 6.48)

====

Assay read-out IC50; system under study: His-Brd2(60-472) (Homo sapiens (Human)).
observation_type: IC50 (µM)

1 = Cc1cc(N2C(=O)c3nn(C)cc3C2c2ccc(Cl)cc2)cn(C)c1=O (centres unmarked)
2 = CC(C)n1ncc2c1C(=O)N(c1cc(Cl)c(=O)n(C)c1)C2c1ccc(Cl)cc1 (centres unmarked)
// compare: 1 vs 2 , metric IC50, want the smaller Which one? Tell me its label.
2

====

// values below are pIC50; system is His-Brd2(60-472) (Homo sapiens (Human), UniProt P25440)
pIC50: −log10 of the molar value.
observation_type: pIC50

>  <compound>
Cc1nn(C2CN(C)C2)c2c1C(c1ccc(Cl)cc1)N(c1cc(C)c(=O)n(C)c1)C2=O (centres unmarked)

>  <pIC50>
6.38

$$$$

I = Cc1c2c(nn1C1CC1)C(=O)N(c1cc(Cl)c(=O)n(C)c1)[C@@H]2c1ccc(Cl)cc1
II = Cc1cc(N2C(=O)c3nn(C(=O)N(C)C)c(C)c3[C@H]2c2ccc(Cl)cc2)cn2c(C)nnc12
III = CCc1nn(C2CC2)c2c1C(c1ccc(Cl)cc1)N(c1cc(OC)c3nnc(C)n3c1)C2=O (centres unmarked)
IV = CCc1nn(C2CC2)c2c1[C@H](c1ccc(Cl)cc1)N(c1cc(C)c3nnc(C)n3c1)C2=O
Rank the 4 compounds: largest pIC50 first, smallest last. Response format: the labels, sorted as the prompt asks.
III, I, II, IV
(III: 7.43, I: 7.11, II: 6.85, IV: 5.54)

a = Cc1c2c(nn1C)C(=O)N(c1cc(Cl)c(=O)n(C)c1)[C@@H]2c1ccc(Cl)cc1
b = CCc1nn(-c2ccnn2C)c2c1C(c1ccc(Cl)cc1)N(c1cc(C)c(=O)n(C)c1)C2=O (centres unmarked)
I'm curious, which of these has a smaller pIC50 number: a or b ? Give the chosen item's label as your response.
a

====

# tested_target: His-CREBBP (1081-1197) bromodomain (Homo sapiens (Human))
# assay_info: AlphaScreen in-vitro binding assay for CREBBP
# setup_conditions: biochemical
pIC50: −log10 of the molar value.
observation_type: pIC50

A selection of reference data follows.
>  <molecule>
Cc1nn(-c2ccnn2C)c2c1[C@@H](c1ccc(Cl)cc1)N(c1cc(C)c(=O)n(C)c1)C2=O

>  <pIC50>
5.37

$$$$
>  <molecule>
Cc1c2c(nn1C1CC1)C(=O)N(c1cc(Cl)c(=O)n(C)c1)C2c1ccc(Cl)cc1 (centres unmarked)

>  <pIC50>
5.89

$$$$
>  <molecule>
COc1ncccc1-n1nc(C)c2c1C(=O)N(c1cc(C)c3nnc(C)n3c1)C2c1ccc(Cl)cc1 (centres unmarked)

>  <pIC50>
4.72

$$$$
>  <molecule>
CCc1nn(-c2cnc(OC)nc2OC)c2c1C(c1ccc(Cl)cc1)N(c1cc(C)c(=O)n(C)c1)C2=O (centres unmarked)

>  <pIC50>
5.06

$$$$
>  <molecule>
CCc1nn(CCOC)c2c1C(c1ccc(Cl)cc1)N(c1cc(C)c3nnc(C)n3c1)C2=O (centres unmarked)

>  <pIC50>
5.01

$$$$

A = Cc1nn(C2CC2)c2c1[C@@H](c1ccc(Cl)cc1)N(c1cc(C)c3nnc(C)n3c1)C2=O
B = Cc1cc(N2C(=O)c3nn(C)c(O)c3C2c2ccc(Cl)cc2)cn(C)c1=O (centres unmarked)
Identify the entry with the smaller pIC50: A or B . Give the label under which the chosen entry appears.
A

Numbers sourced from patent US8975417B2.
